- Tested on: 7G8
- Assay Procedure: qHTS profiling for inhibitors of Plasmodium falciparum proliferation (AID 504749); further: nearly all actives have a fitted effect of over 60% in size
- Condition Summary: P. falciparum in erythrocytes, SYBR Green DNA, 72 h; series mostly up to 28.7 µM
Results filed as inconclusive are left out. Calls of active or inactive are those of the source. The call rests on the fitted dose curve; in most records, active means well fitted inhibition curve with a large enough effect; inconclusive means small, poorly fitted or top-dose-only effect; inactive means flat fitted curve, though single readings scatter.
Possible outcomes: Y for active, N for inactive

Compound: CC1(C)[C@@H]2CC[C@@]1(C)C(=O)C2
Classification: N
--
Compound: COc1ccccc1O
Classification: N
--
Compound: COCCOC(=O)C1=C(C)NC(C)=C(C(=O)OC/C=C/c2ccccc2)C1c1cccc([N+](=O)[O-])c1 (configuration not stated)
Classification: Y
--
Compound: Cc1ncc(COP(=O)(O)O)c(C=O)c1O
Classification: N
--
Compound: O=C(CCCN1CCN(c2ccccn2)CC1)c1ccc(F)cc1
Classification: N
--
Compound: CC(C)(C)C(=O)C(Oc1ccc(Cl)cc1)n1ccnc1 (configuration not stated)
Classification: Y
--
Compound: [Cl][In]([Cl])[Cl]
Classification: Y
--
Compound: O=C1OC(OC(=O)c2cccnc2Nc2cccc(C(F)(F)F)c2)c2ccccc21 (configuration not stated)
Classification: N
--
Compound: CNCCC(Oc1ccc(C(F)(F)F)cc1)c1ccccc1 (configuration not stated)
Classification: Y
--
Compound: Cc1cccc(C)c1NC(=O)CN(CC(=O)O)CC(=O)O
Classification: N
--
Compound: Nc1ccc(S(=O)(=O)NC(=O)c2ccccc2)cc1
Classification: N
--
Compound: CCN(CC)CCSC(=O)C(c1ccccc1)c1ccccc1
Classification: N

----------
- Assay Procedure: NFAT Signaling Pathway (AID 444);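 further: carbachol stimulus at about its EC50 of 1 µM final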
- Condition Summary: Jurkat NFAT-bla M1, carbachol, beta-lactamase ratio, 5 h; at 17.2 µM (top of the series)
Records with an inconclusive call do not appear. The source made the active and inactive calls. The call rests on the fitted dose curve; in most records, active means well fitted curve in either direction with a large enough effect (not every such curve was filed as active); inconclusive means small, poorly fitted or top-dose-only effect, or another doubt; inactive means flat fitted curve, though single readings scatter.
Possible outcomes: active, inactive

Compound: C[C@H](N)[C@H](O)c1cccc(O)c1
Classification: inactive
--
Compound: CCCCOC(=O)c1ccc(O)cc1
Classification: inactive
--
Compound: Cn1cc[nH]c1=S
Classification: inactive
--
Compound: CSc1ccc2c(c1)N(CCC1CCCCN1C)c1ccccc1S2 (centres undefined)
Classification: active
--
Compound: CCOc1ccc2ccccc2c1C(=O)N[C@@H]1C(=O)N2[C@@H]1SC(C)(C)[C@@H]2C(=O)O
Classification: inactive
--
Compound: Nc1ccc(S(=O)(=O)Nc2nccs2)cc1
Classification: inactive
--
Compound: Cc1ncc([N+](=O)[O-])n1CC(O)CCl (centres undefined)
Classification: inactive
--
Compound: CC(CN1c2ccccc2Sc2ccccc21)N(C)C (centres undefined)
Classification: active
--
Compound: CC[C@H]1CN2CCc3cc(OC)c(OC)cc3[C@@H]2C[C@@H]1C[C@H]1NCCc2cc(OC)c(OC)cc21
Classification: active
--
Compound: CN(C)CCCN1c2ccccc2Sc2ccc(Cl)cc21
Classification: active
--
Compound: CCn1cc(C(=O)O)c(=O)c2cnc(N3CCNCC3)nc21
Classification: inactive
--
Compound: Nc1ccc(S(=O)(=O)Nc2ccc(Cl)nn2)cc1
Classification: inactive
--
Compound: CCC(=O)c1ccc(O)cc1
Classification: inactive
--
Compound: OCC(O)CN1CCN(c2ccccc2)CC1 (centres undefined)
Classification: inactive
--
Compound: CCN(CC)CCOC(=O)C1(C2CCCCC2)CCCCC1
Classification: active
--
Compound: Cc1cc2c(cc1S(N)(=O)=O)S(=O)(=O)CCC2
Classification: inactive
--
Compound: Cc1cc(CC(=O)O)n(C)c1C(=O)c1ccc(Cl)cc1
Classification: inactive
--
Compound: c1ccc2c(CC3=NCCN3)cccc2c1
Classification: inactive
--
Compound: CN1[C@@H]2CC(OC(=O)[C@H](CO)c3ccccc3)C[C@H]1[C@@H]1O[C@@H]12 (some centres undefined)
Classification: active

----------
- Test system: CP250
- Assay Procedure: qHTS profiling for inhibitors of Plasmodium falciparum proliferation (AID 504749); further: nearly all actives have a fitted effect of over 60% in size
- Condition Summary: P. falciparum in erythrocytes, SYBR Green DNA, 72 h; series mostly up to 28.7 µM
Records with an inconclusive call do not appear. Active and inactive are the calls of the source. Calls follow the shape of the dose curve; as a rule, active = well fitted inhibition curve with a large enough effect; inconclusive = small, poorly fitted or top-dose-only effect; inactive = flat fitted curve, though single readings scatter.
Possible outcomes: true (active), false (inactive)

Compound: O=Cc1ccccc1C=O
Classification: false
//
Compound: Cn1c(=O)c2c(ncn2CC2OCCO2)n(C)c1=O
Classification: false
//
Compound: COc1cc(C)c(Cc2cnc(N)nc2N)cc1OC
Classification: false
//
Compound: [O-][n+]1cccc(CO)c1
Classification: false
//
Compound: O=C1OC(OC(=O)c2cccnc2Nc2cccc(C(F)(F)F)c2)c2ccccc21 (stereo unspecified)
Classification: false
//
Compound: NC1CCN(c2cccc(Cl)n2)CC1
Classification: false
//
Compound: Cc1cccc(C)c1NC(=O)CN(CC(=O)O)CC(=O)O
Classification: false
//
Compound: NC(CSCC(=O)O)C(=O)O (stereo unspecified)
Classification: false
//
Compound: CC1(C)OC(=O)NC1=O
Classification: false
//
Compound: CC(=O)CCC(=O)O
Classification: false
//
Compound: O=c1cc[nH]c(=S)[nH]1
Classification: false
//
Compound: Nc1ccc(S(=O)(=O)Nc2nccs2)cc1
Classification: false
//
Compound: Cc1cc2c(cc1S(N)(=O)=O)S(=O)(=O)CCC2
Classification: false
//
Compound: CC(C)(C)NCC(O)COc1ccc(NC(=O)NC2CCCCC2)cc1 (stereo unspecified)
Classification: false
//
Compound: O=c1cc(CO)occ1O
Classification: false
//
Compound: CCCCOC(=O)c1ccc(O)cc1
Classification: false
//
Compound: Cc1cc(C(C#N)c2ccc(Cl)cc2)c(Cl)cc1NC(=O)c1cc(I)cc(I)c1O (stereo unspecified)
Classification: false
//
Compound: Cc1cccc(Nc2cc(Cl)nc(SCC(=O)O)n2)c1C
Classification: false
//
Compound: CCN(CC)CCNC(C(=O)OCCC(C)C)c1ccccc1 (stereo unspecified)
Classification: false
//
Compound: CC[C@@]1(c2ccccc2)NC(=O)N(C)C1=O
Classification: false
//
Compound: Cc1ccc2nc(N)[nH]c(=O)c2c1Sc1ccncc1
Classification: true
//
Compound: CC(C)(C)C(=O)NCCCC(=O)O
Classification: false
//
Compound: Nc1ccc(S(=O)(=O)Nc2ccccc2)cc1
Classification: false
//
Compound: CC12CCC(CC1)C(C)(C)O2
Classification: false
//
Compound: OCc1cc(C(O)CNCCCCCCOCCCCc2ccccc2)ccc1O (stereo unspecified)
Classification: false
//
Compound: Cc1cc(O)cc2c1O[C@](C)(CCC[C@H](C)CCC[C@H](C)CCCC(C)C)CC2
Classification: false
//
Compound: O=C(CCCN1CCN(c2ccccn2)CC1)c1ccc(F)cc1
Classification: false
//
Compound: CCCCN(CCCC)CC(O)c1cc(Cl)cc2c1-c1ccc(Cl)cc1/C2=C/c1ccc(Cl)cc1 (stereo unspecified)
Classification: true
//
Compound: COc1cc(C(=O)N2CCOCC2)cc(OC)c1OC
Classification: false
//
Compound: NS(=O)(=O)c1cc2c(cc1Cl)NC(CSCc1ccccc1)=NS2(=O)=O
Classification: false
//
Compound: CC(O)CN(CCN(CC(C)O)CC(C)O)CC(C)O (stereo unspecified)
Classification: false
//
Compound: NC(=O)NC(=O)Cc1ccccc1
Classification: false
//
Compound: O=C1NC(=O)[C@@]2(CCOc3ccc(F)cc32)N1
Classification: false
//
Compound: CC(=O)Oc1ccc(C2(c3ccc(OC(C)=O)cc3)C(=O)Nc3ccccc32)cc1
Classification: false
//
Compound: O=C1O[C@H]([C@@H](O)CO)C(O)=C1O
Classification: false
//
Compound: CC1=C(CC(=O)O)c2cc(F)ccc2/C1=C\c1ccc(S(C)=O)cc1 (stereo unspecified)
Classification: false
//
Compound: O=c1cc[nH]c(=O)[nH]1
Classification: false
//
Compound: CCOC(=O)c1ccc(O)cc1
Classification: false
//
Compound: CC(CN1c2ccccc2Sc2ccccc21)N(C)C (stereo unspecified)
Classification: false
//
Compound: CC(=O)NC(Cc1ccccc1)C(=O)O (stereo unspecified)
Classification: false
//
Compound: CNC(=O)Oc1ccc2c(c1)[C@]1(C)CCN(C)[C@@H]1N2C
Classification: true

----------
- Assayed Target: Glutathione peroxidase 1 (Homo sapiens) (UniProt P07203)
- Sequence (P07203 whole entry, looked up): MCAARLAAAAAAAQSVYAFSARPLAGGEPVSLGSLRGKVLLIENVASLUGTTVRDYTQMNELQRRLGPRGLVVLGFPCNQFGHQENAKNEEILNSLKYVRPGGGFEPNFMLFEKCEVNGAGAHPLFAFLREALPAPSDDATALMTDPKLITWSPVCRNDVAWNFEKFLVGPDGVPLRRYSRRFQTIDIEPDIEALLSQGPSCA
- Assay Procedure: Primary qHTS Assay for Inhibitors of Recombinant Selenoprotein Glutathione Peroxidase 1 (GPX1) (AID 1845191); further: nearly all actives have a fitted effect of over 65% in size
- Condition Summary: recombinant GPX1, GR-coupled NADPH fluorescence, 15 min; series mostly up to 48.8 µM
- Description: Assay Provider: Elias S.J. Arner MD PhD. Department of Medical Biochemistry and Biophysics Karolinska Institutet, Solna, Stockholm, Sweden […] 5; Detection; Fluorescence; ViewLux microplate reader, excitation 340 nm and emission 450 nm. […] 7; Detection; Fluorescence; ViewLux microplate reader, excitation 340 nm and emission 450 nm. […] 5. Initial fluorescence readout (t=0) at 340/450 nm was measured using a ViewLux multimodal detector (PerkinElmer, Waltham, MA). […]
Records with an inconclusive call do not appear. Active and inactive are the calls of the source. The call rests on the fitted dose curve; in most records, active means well fitted inhibition curve with a large enough effect; inconclusive means small, poorly fitted or top-dose-only effect; inactive means flat fitted curve, though single readings scatter.
Possible outcomes: TRUE (active), FALSE (inactive)

Compound: CC/C=C(\C(=O)N[C@@H]1C(=O)N2C(C(=O)OCOC(=O)C(C)(C)C)=C(COC(N)=O)CS[C@H]12)c1csc(N)n1
Classification: TRUE
--
Compound: CCCCN1CCCC[C@H]1C(=O)Nc1c(C)cccc1C
Classification: FALSE
--
Compound: CCN(CC)CCCC(C)Nc1c2ccc(Cl)cc2nc2ccc(OC)cc12 (stereo not given)
Classification: FALSE
--
Compound: CCCCN(CCCC)CCCOC(=O)c1ccc(N)cc1
Classification: FALSE
--
Compound: CC(C)(C)c1onc(OCP(=O)(O)O)c1CC(N)C(=O)O (stereo not given)
Classification: FALSE
--
Compound: CN(C)CCCN1c2ccccc2Sc2ccc(Cl)cc21
Classification: FALSE
--
Compound: O=C1O[C@H]([C@@H](O)CO)C(O)=C1O
Classification: FALSE
--
Compound: C=Cc1c(C)c2cc3[nH]c(cc4nc(cc5nc(cc1[nH]2)C(C)=C5CCC(=O)O)C(CCC(=O)O)=C4C)c(C)c3C=C
Classification: FALSE
--
Compound: O=C1NS(=O)(=O)c2ccccc21
Classification: FALSE
--
Compound: CC(=O)OCC(=O)[C@@]1(O)CC[C@H]2[C@@H]3CCC4=CC(=O)CC[C@]4(C)[C@H]3C(=O)C[C@@]21C
Classification: FALSE
